Cited source: the kinase profiling compilation of Christmann-Franck et al. (2016)

- TEST SYSTEM: AXL (human) (UniProt P30530)
- Sequence (P30530 whole entry, looked up): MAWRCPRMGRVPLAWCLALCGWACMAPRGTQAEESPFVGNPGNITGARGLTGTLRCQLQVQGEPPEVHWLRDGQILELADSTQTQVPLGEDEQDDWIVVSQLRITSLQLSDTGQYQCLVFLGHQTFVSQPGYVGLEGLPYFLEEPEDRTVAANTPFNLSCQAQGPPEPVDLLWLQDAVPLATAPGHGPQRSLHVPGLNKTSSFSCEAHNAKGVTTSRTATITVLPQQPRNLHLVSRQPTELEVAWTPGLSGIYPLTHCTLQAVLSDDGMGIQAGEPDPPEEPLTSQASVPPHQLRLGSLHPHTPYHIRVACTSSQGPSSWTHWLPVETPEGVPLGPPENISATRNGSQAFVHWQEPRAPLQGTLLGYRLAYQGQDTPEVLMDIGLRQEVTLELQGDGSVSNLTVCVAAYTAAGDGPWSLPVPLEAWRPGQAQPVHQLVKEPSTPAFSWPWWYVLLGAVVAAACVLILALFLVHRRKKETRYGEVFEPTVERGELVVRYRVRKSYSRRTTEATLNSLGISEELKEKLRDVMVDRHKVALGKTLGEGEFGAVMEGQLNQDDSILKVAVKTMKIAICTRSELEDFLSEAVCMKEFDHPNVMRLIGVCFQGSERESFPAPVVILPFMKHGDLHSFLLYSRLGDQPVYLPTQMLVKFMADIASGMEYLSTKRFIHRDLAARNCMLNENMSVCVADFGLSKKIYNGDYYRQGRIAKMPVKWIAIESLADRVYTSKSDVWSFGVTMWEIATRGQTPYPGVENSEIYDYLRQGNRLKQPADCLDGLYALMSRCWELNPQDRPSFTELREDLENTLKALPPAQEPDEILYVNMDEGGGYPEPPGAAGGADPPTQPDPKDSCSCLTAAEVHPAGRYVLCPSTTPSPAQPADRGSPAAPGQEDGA
- ASSAY OVERVIEW: KINOMEscan competition binding
- CONDITION DESCRIPTION: compound 10.0 µM
Output True for records whose kinase still bound, per cent of control is lower than 80%, False for records at or above 80%.

Cc1cn(-c2cc(C(=O)Nc3ccc(C)c(NC(=O)c4ccno4)c3)cc(C(F)(F)F)c2)cn1: False
CCN(CCO)CCCOc1ccc2c(Nc3cc(CC(=O)Nc4cccc(F)c4)[nH]n3)ncnc2c1: True
CNC(=O)Nc1ccc(-c2nc(N3CC4CCC(C3)O4)c3cnn(C4CCC5(CC4)OCCO5)c3n2)cc1: False
CCOc1cc(N2CCC(O)CC2)ccc1Nc1ncc2c(n1)N(C)c1ccccc1C(=O)N2C: False
CC(=O)c1c(C)c2cnc(Nc3ccc(N4CCNCC4)cn3)nc2n(C2CCCC2)c1=O: True
COc1cc2ncnc(Nc3cccc(Cl)c3)c2cc1OC: True

Consider CCCS(=O)(=O)Nc1ccc(F)c(C(=O)c2c[nH]c3ncc(Cl)cc23)c1F . Does its kinase still bound, per cent of control lie strictly below 80%?
True

Lab note: confirm whether the reported kinase still bound, per cent of control for this molecule is below 80%, equality not counting. molecule: CCN1CCN(Cc2ccc(NC(=O)c3ccc(C)c(/C=C/c4cnc5[nH]ccc5c4OC)c3)cc2C(F)(F)F)CC1
True

In plain terms, does N#Cc1cc(-c2ccnc(Nc3ccc(-n4cnc(-c5cccnc5)n4)cc3)n2)cc(N2CCOCC2)c1 come in under 80% for kinase still bound, per cent of control?
True

Field: below-cutoff. Rule: recorded kinase still bound, per cent of control strictly less than 80%. Subject: COc1cc2c(Nc3ccc(NC(=O)c4ccccc4)cc3)ncnc2cc1OCCCN1CCOCC1
True

Lab log: compare recorded kinase still bound, per cent of control with 80%; is it strictly lower for COc1ccc(N(C(=O)Oc2cc(C(=O)Nc3cccc(C(F)(F)F)c3)ccc2C)c2ccnc(Nc3ccc(N4CCN(C)CC4)cc3)n2)c(OC)c1 ?
False

* * *

- TEST SYSTEM: BMPR2 (human) (UniProt Q13873)
- Sequence (Q13873 whole entry, looked up): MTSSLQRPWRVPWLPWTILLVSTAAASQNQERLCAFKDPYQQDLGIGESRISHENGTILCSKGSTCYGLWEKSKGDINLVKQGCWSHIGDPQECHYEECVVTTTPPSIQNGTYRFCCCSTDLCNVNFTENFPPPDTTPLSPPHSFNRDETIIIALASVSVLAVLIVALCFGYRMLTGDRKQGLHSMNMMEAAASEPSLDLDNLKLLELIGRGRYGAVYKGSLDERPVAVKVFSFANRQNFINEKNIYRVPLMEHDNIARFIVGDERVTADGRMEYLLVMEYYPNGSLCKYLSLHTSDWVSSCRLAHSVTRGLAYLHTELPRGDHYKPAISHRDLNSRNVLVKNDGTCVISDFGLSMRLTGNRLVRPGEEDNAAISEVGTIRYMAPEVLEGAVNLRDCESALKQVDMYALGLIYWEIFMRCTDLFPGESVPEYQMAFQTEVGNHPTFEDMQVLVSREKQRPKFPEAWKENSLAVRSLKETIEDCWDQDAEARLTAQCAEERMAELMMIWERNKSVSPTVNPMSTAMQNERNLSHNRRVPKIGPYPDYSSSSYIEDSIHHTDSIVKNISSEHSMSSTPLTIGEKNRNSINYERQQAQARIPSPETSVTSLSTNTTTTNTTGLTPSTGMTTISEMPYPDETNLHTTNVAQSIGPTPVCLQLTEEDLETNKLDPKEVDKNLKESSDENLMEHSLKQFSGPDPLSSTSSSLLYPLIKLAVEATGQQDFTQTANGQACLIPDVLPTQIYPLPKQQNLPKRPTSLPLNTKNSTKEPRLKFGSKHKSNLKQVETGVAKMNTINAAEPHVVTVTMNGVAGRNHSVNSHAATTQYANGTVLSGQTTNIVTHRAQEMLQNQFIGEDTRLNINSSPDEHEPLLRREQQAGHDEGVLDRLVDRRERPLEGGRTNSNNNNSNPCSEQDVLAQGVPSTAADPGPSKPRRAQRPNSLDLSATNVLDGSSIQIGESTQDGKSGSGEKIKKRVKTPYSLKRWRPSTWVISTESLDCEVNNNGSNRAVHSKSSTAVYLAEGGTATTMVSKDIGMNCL
- ASSAY OVERVIEW: KINOMEscan competition binding
- CONDITION DESCRIPTION: compound 10.0 µM
MEASURED PROPERTY: kinase still bound, per cent of control (%)
Number in %, nothing else.

Examples with their reported kinase still bound, per cent of control follow.
COc1cc(C)c(Sc2cnc(NC(=O)c3ccc(CNC(C)C(C)C)cc3)s2)cc1C(=O)N1CCN(C(C)=O)CC1 (configuration not stated): 100
CNC(=O)Nc1ccc(-c2nc(N3CC4CCC(C3)O4)c3cnn(C4CCC5(CC4)OCCO5)c3n2)cc1: 83
COc1ccc(N(C(=O)Oc2cc(C(=O)Nc3cccc(C(F)(F)F)c3)ccc2C)c2ccnc(Nc3ccc(N4CCN(C)CC4)cc3)n2)c(OC)c1: 1.1
O=c1[nH]c2ccccc2n1C1CCN(Cc2ccc(-c3nc4cc5[nH]cnc5cc4nc3-c3ccccc3)cc2)CC1: 100
C=CC(=O)Nc1ccc(C(=O)c2sc(Nc3ccc(N4CCN(C)CC4)cc3OC)nc2N)cc1: 100
Cc1cn(-c2cc(C(=O)Nc3ccc(C)c(NC(=O)c4ccno4)c3)cc(C(F)(F)F)c2)cn1: 100

Please find the next compound below.
Need kinase still bound, per cent of control, item COc1cc(N2CCC(C(N)=O)CC2)ccc1Nc1nc(N)c(Cl)c(Nc2ccccc2S(=O)(=O)C(C)C)n1
100

* * *

# kinase still bound, per cent of control per entry
- TEST SYSTEM: PI4KB (human)
- ASSAY OVERVIEW: KINOMEscan competition binding
- CONDITION DESCRIPTION: compound 10.0 µM
Enter your answer as a number in %; do not include the unit.

Observed kinase still bound, per cent of control on PI4KB (human) for N#C/C(=C1/Nc2ccccc2S1)c1ccnc(NCCc2cccnc2)n1 , please.
20

Find the measured kinase still bound, per cent of control: item CCc1nc(-c2cccc(C)c2)c(-c2ccnc(NC(=O)c3ccccc3)c2)s1 , target or system PI4KB (human).
100

Tell me reported kinase still bound, per cent of control for N#Cc1cc(-c2ccnc(Nc3ccc(-n4cnc(-c5cccnc5)n4)cc3)n2)cc(N2CCOCC2)c1 , tested with PI4KB (human).
100

# get_value(readout= kinase still bound, per cent of control, system= PI4KB (human)) for Cc1cn(-c2cc(C(=O)Nc3ccc(C)c(NC(=O)c4ccno4)c3)cc(C(F)(F)F)c2)cn1
100

* * *

- TEST SYSTEM: FGFR4 (human)
- ASSAY OVERVIEW: KINOMEscan competition binding
- CONDITION DESCRIPTION: compound 10.0 µM
The entries below are paired with their reported kinase still bound, per cent of control.
The response must be a number in % with no trailing unit.

Examples with their reported kinase still bound, per cent of control follow.
CCN1CCN(Cc2ccc(NC(=O)c3ccc(C)c(/C=C/c4cnc5[nH]ccc5c4OC)c3)cc2C(F)(F)F)CC1: 0.45
CNC(=O)Nc1ccc(-c2nc(N3CC4CCC(C3)O4)c3cnn(C4CCC5(CC4)OCCO5)c3n2)cc1: 62
COc1cc2c(Nc3ccc(NC(=O)c4ccccc4)cc3)ncnc2cc1OCCCN1CCOCC1: 100
COc1cc(C)c(Sc2cnc(NC(=O)c3ccc(CNC(C)C(C)C)cc3)s2)cc1C(=O)N1CCN(C(C)=O)CC1 (stereo not drawn): 100
CCc1nc(-c2cccc(C)c2)c(-c2ccnc(NC(=O)c3ccccc3)c2)s1: 100

Given CC1=C(C(=O)Nc2cc3cn[nH]c3cc2F)C(c2ccc(C(F)(F)F)cc2)CC(=O)N1 (stereo not drawn) , state its recorded kinase still bound, per cent of control.
67

Can you look up the measured kinase still bound, per cent of control of CCN(CCO)CCCOc1ccc2c(Nc3cc(CC(=O)Nc4cccc(F)c4)[nH]n3)ncnc2c1 for me?
100

Given the entry N#C/C(=C1/Nc2ccccc2S1)c1ccnc(NCCc2cccnc2)n1 , report its measured kinase still bound, per cent of control.
100

* * *

- Tested on: BMX (human), P51813 [V600E]
- Sequence (P51813 whole entry, looked up, stated change not applied): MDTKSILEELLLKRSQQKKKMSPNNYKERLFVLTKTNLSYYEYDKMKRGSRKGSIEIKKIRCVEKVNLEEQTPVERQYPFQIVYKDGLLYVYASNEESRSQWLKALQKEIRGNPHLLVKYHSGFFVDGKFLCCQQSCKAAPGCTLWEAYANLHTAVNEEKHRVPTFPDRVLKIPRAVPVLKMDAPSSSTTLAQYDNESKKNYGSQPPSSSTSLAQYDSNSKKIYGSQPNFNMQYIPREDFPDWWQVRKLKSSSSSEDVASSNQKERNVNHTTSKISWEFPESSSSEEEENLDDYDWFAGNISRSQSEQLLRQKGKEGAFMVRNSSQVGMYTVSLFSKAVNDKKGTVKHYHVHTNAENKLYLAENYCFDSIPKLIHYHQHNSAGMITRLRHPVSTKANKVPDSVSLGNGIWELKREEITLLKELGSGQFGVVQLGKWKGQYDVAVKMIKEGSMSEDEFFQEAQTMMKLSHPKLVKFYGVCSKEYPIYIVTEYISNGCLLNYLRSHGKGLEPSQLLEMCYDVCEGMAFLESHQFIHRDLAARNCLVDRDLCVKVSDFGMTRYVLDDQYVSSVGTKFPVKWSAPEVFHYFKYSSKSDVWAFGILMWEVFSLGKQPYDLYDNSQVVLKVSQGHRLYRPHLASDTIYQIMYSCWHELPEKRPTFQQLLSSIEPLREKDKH
- ASSAY OVERVIEW: KINOMEscan competition binding
- CONDITION DESCRIPTION: compound 10.0 µM
MEASURED PROPERTY: kinase still bound, per cent of control (%)
Report as a plain number; the unit % is understood.

// worked examples, kinase still bound, per cent of control included
CN(C)C/C=C/C(=O)Nc1cccc(Nc2ncc3c(n2)N(C)c2ccccc2C(=O)N3C)c1: 59
CCc1nc(-c2cccc(C)c2)c(-c2ccnc(NC(=O)c3ccccc3)c2)s1: 23
COc1cc(C(=O)N2CCC(N3CCN(C)CC3)CC2)ccc1Nc1ncc2c(n1)N(C)c1ccccc1C(=O)N2C: 100
CCCS(=O)(=O)Nc1ccc(F)c(C(=O)c2c[nH]c3ncc(Cl)cc23)c1F: 0

--- query ---
Entry under review: COCC(=O)NC/C=C/c1ccc2ncnc(Nc3ccc(Oc4ccc(C)nc4)c(C)c3)c2c1 . Reported kinase still bound, per cent of control?
80

* * *

- TEST SYSTEM: RPS6KA4 KD1 (human) (UniProt O75676)
- Sequence (O75676 whole entry, looked up): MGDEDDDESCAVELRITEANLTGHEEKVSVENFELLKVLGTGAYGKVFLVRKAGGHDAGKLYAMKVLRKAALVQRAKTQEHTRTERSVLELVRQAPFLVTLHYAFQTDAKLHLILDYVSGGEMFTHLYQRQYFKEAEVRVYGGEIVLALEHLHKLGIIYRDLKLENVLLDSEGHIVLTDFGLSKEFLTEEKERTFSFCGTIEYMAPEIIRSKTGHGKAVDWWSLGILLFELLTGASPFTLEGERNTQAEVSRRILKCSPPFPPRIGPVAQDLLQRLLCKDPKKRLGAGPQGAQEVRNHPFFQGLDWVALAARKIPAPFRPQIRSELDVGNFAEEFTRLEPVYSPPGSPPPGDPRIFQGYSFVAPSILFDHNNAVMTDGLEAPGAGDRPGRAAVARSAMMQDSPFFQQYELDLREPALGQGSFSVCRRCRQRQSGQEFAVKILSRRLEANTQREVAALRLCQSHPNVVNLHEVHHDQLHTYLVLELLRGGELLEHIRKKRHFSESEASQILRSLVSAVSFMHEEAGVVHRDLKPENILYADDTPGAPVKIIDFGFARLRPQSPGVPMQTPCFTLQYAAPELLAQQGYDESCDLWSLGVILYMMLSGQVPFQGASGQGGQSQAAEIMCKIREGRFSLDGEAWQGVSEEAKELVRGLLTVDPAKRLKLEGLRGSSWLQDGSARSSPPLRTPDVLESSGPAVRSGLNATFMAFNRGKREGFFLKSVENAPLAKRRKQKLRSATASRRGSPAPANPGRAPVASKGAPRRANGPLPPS
- ASSAY OVERVIEW: KINOMEscan competition binding
- CONDITION DESCRIPTION: compound 10.0 µM
Measured kinase still bound, per cent of control accompanies every entry in the list below.
Reply numerically in %, unit not repeated.

N#C/C(=C1/Nc2ccccc2S1)c1ccnc(NCCc2cccnc2)n1: 100
CCc1nc(-c2cccc(C)c2)c(-c2ccnc(NC(=O)c3ccccc3)c2)s1: 100
COc1ccc(N(C(=O)Oc2cc(C(=O)Nc3cccc(C(F)(F)F)c3)ccc2C)c2ccnc(Nc3ccc(N4CCN(C)CC4)cc3)n2)c(OC)c1: 100

Which measured kinase still bound, per cent of control belongs to COc1cc(C)c(Sc2cnc(NC(=O)c3ccc(CNC(C)C(C)C)cc3)s2)cc1C(=O)N1CCN(C(C)=O)CC1 (centres undefined) , tested on RPS6KA4 KD1 (human) (UniProt O75676)?
100

Can you look up kinase still bound, per cent of control on RPS6KA4 KD1 (human) (UniProt O75676) for CCCS(=O)(=O)Nc1ccc(F)c(C(=O)c2c[nH]c3ncc(Cl)cc23)c1F ?
85

Query the reported kinase still bound, per cent of control for RPS6KA4 KD1 (human) (UniProt O75676); item: COc1cc2c(Nc3ccc(NC(=O)c4ccccc4)cc3)ncnc2cc1OCCCN1CCOCC1
100

Can you look up kinase still bound, per cent of control on RPS6KA4 KD1 (human) (UniProt O75676) for C=CC(=O)Nc1ccc(C(=O)c2sc(Nc3ccc(N4CCN(C)CC4)cc3OC)nc2N)cc1 ?
95

What is its kinase still bound, per cent of control for RPS6KA4 KD1 (human) (UniProt O75676)? Entry: CNC(=O)Nc1ccc(-c2nc(N3CC4CCC(C3)O4)c3cnn(C4CCC5(CC4)OCCO5)c3n2)cc1
90

Give the reported kinase still bound, per cent of control for CC(=O)c1c(C)c2cnc(Nc3ccc(N4CCNCC4)cn3)nc2n(C2CCCC2)c1=O (system: RPS6KA4 KD1 (human) (UniProt O75676)).
75
